System: tested cancer cell lines (HepG2, Hep2, HCT116, RD, MCF7)
experimental details: In vitro cytotoxicity, summary statements over tested cancer cell lines
Assay type: cell-based, human
assay context: Homo sapiens, RD, read-out: IC50 against cancer cell lines
pIC50: −log10 of the molar value.
Measured pIC50, listed per entry.

# input // returns reported pIC50 for input O=c1cc(-c2ccc(O)c(O)c2)oc2cc(O)cc(O)c12
# output > 4.70

# input Quick one: O=c1ccc2ccc3occc3c2o1
# output > 4.70

# input For O=c1c(O)c(-c2ccc(O)c(O)c2)oc2cc(O)cc(O)c12 then?
# output > 4.70
